These entries and their values trace back to paper PMC8222333.

# TARGET: d-enCas12a (Acidaminococcus sp., UniProt U2UMQ6 1-1307, E174R;S542R;K548R;D908A;E993A;D1235A)
# PROTOCOL_DETAILS: Spec-seq (native PAGE EMSA with sequencing of bound and unbound); 25 mM Tris-HCl pH 7.4, 150 mM KCl, 5 mM MgCl2, 10% glycerol, 1 mM DTT, 40 ng/uL salmon sperm DNA; 400 nM Cas12a, 480 nM crRNA, 50 nM library, 37 C 1 h; native PAGE at room temperature; high values mean tight binding;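 also: relative affinity from the bound to unbound sequence frequency ratio in Spec-seq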
# CONDITION_CONTEXT: protein: recombinant
READOUT_KIND: binding signal
The answer should read as a number with its unit following.

Quick check: binding signal of TATC (dsDNA) DNA 1: GCTATCTAGTGCTCAGTACGCACTGTATCAGGAAACTTCTGGCAGGACCAGGTCATGAGATCGGAAGAGCACACGTCTGAACTCCAGTCA DNA 2: TGACTGGAGTTCAGACGTGTGCTCTTCCGATCTCATGACCTGGTCCTGCCAGAAGTTTCCTGATACAGTGCGTACTGAGCACTAGATAGC RNA: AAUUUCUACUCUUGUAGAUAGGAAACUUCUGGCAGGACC ?
-0.993 lnKA

Quick check: binding signal of AGTA (dsDNA) DNA 1: GCTATCTAGTGCTCAGTACGCACTGAGTAAGGAAACTTCTGGCAGGACCAGGTCATGAGATCGGAAGAGCACACGTCTGAACTCCAGTCA DNA 2: TGACTGGAGTTCAGACGTGTGCTCTTCCGATCTCATGACCTGGTCCTGCCAGAAGTTTCCTTACTCAGTGCGTACTGAGCACTAGATAGC RNA: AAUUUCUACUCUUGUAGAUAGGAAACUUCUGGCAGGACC ?
-2.11 lnKA

Quick check: binding signal of TGAC (dsDNA) DNA 1: GCTATCTAGTGCTCAGTACGCACTGTGACAGGAAACTTCTGGCAGGACCAGGTCATGAGATCGGAAGAGCACACGTCTGAACTCCAGTCA DNA 2: TGACTGGAGTTCAGACGTGTGCTCTTCCGATCTCATGACCTGGTCCTGCCAGAAGTTTCCTGTCACAGTGCGTACTGAGCACTAGATAGC RNA: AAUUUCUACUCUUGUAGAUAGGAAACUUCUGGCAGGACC ?
-5.25 lnKA

Quick check: binding signal of GCAA (dsDNA) DNA 1: GCTATCTAGTGCTCAGTACGCACTGGCAAAGGAAACTTCTGGCAGGACCAGGTCATGAGATCGGAAGAGCACACGTCTGAACTCCAGTCA DNA 2: TGACTGGAGTTCAGACGTGTGCTCTTCCGATCTCATGACCTGGTCCTGCCAGAAGTTTCCTTTGCCAGTGCGTACTGAGCACTAGATAGC RNA: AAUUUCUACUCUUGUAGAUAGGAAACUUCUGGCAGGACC ?
-5.83 lnKA
